biological target: UniProt:P07711; experiment: Inhibition of CTSL (unknown origin)
pIC50: −log10 of the molar value.
observationType: pIC50

>>> observedresult("O=C(N[C@@H](Cc1ccccc1)C(=O)OC[C@H](Cc1ccccc1)NS(=O)(=O)c1ccc(Br)cc1)c1ccccc1")
5.22
>>> observedresult("O=C(N[C@H](COC(=O)[C@H](Cc1ccccc1)NS(=O)(=O)c1cccc(Br)c1)Cc1ccccc1)c1ccccc1")
5.24
>>> observedresult("O=C(N[C@H](COC(=O)[C@H](Cc1ccccc1)NC(=O)c1ccccc1)Cc1ccccc1)c1ccccc1 [ASPERPHENAMATE]")
4.04

----------
target: Procathepsin L (Homo sapiens); assay: Inhibition of CTSL (unknown origin) using Z-Phe-Arg-AMC as substrate preincubated for 30 mins followed by substrate addition measured after 6 mins by fluorescence based assay
Sequence (P07711 whole entry): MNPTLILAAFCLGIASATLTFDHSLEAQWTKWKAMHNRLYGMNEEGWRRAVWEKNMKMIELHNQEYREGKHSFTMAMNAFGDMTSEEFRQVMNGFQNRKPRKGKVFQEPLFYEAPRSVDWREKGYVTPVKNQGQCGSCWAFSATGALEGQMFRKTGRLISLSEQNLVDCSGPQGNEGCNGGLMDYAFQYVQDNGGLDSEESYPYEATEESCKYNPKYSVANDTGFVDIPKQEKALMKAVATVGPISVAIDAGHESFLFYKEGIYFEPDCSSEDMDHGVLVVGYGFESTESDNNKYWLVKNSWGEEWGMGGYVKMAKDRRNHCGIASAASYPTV
observationType: IC50 (µM)

>>> observedresult("Cc1ccc(S(=O)(=O)N[C@@H](Cc2ccccc2)C(=O)OC[C@H](Cc2ccccc2)NC(=O)c2ccccc2)cc1")
30.2

Origin of values: ChEMBL document CHEMBL6071139
